# Experimental details: Drug concentration in serum and tissues by LC-MS, pharmacokinetics and BBB permeability
# Assay type: in vivo, mice
# Assay context: C57BL/6, mouse, ipsilateral ischemic hemisphere (IL brain), iv; 15 mg/kg i.v.; IL brain; tissue density assumed 1 g/ml; mean ± SD; read-out: AUC0–6 h
Property: AUC(0-t)

O=C(CCN1CCN(Cc2ccccc2)CC1)Nc1nc(-c2ccccc2)cs1 [TJ-5] | 5140 ng·h/mL

###

# Experimental details: Drug concentration in serum and tissues by LC-MS, pharmacokinetics and BBB permeability
# Type: in vivo, mice
# Assay context: C57BL/6, mouse, intravenous; 15 mg/kg i.v.; Sham brain; 6 h; mean ± SD; read-out: concentration in Sham brain
Property: concentration at 6 h (ng/g)

O=C(CCN1CCN(Cc2ccccc2)CC1)Nc1nc(-c2ccccc2)cs1 | 18.7
